I'd appreciate it if you could supply self-cleavage values for the items below.
B1: OR4K15 (parent)
chain: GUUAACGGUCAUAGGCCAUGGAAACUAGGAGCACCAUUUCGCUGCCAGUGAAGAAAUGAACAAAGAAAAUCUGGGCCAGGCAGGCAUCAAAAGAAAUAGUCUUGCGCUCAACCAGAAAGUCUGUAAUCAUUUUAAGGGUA

Variants of: B1
Assay: self-cleavage, relative activity (ratio to wild type); higher = more cleavage; in vitro, sequencing; the parent is a self-cleaving ribozyme
Numbers only.

Study these solved cases before continuing.
CONSTRUCT_SEQUENCE	RECORDED_MEASUREMENT
GUUAACGGUCAAAGGCCAUGGAAACUAGGUGCACCAUUUCGCUGCCAGUGAAGAAAUGAACAAAGAAAAUCUGGGCCAGGCAGGCAUCAAAAGAAAUAGUCUUGCGCUCAACCAGAAAGUCUGUAAUCAUUUUAAGGGUA [U12A A30U]	1.11
GUUAACGGUCAUAGGCCAUGGAAACUAGGAGCACCAUUUCGCUGCCAGUGAAGAAGUGAACAAAGAAAAUCUGGGCCAAGCAGGCAUCAAAAGAAAUAGUCUUGCGCUCAACCAGAAAGUCUGUAAUCAUUUUAAGGGUA [A56G G79A]	0.1
GUUAACGGUCAUAGGCCAUGGAAACUAGGAGCACCAUUUCGCUGCCAGUGAAGAAAUGAACAAAGAAAAUCUGGGCUAGGCAGGCAUCAAAAGAAAUAGUCUUGCGCUCAACCUGAAAGUCUGUAAUCAUUUUAAGGGUA [C77U A114U]	0.14
GUUAACGGUCAUAGGCCAUGGAAACUAGGGGCACCAUUUCGCUGCCAGUGAAGAAAUGAACAAAGAAAAUCUGGGCCAGGCAGGCAUCAAAAGAAAUAGUCUUGCGCUCAACCAGAAAGUCUGUAAUCAUUUUAAGAGUA [A30G G137A]	1.06

For each entry beneath this line, provide reported self-cleavage.
1. GUUAACGGUCAUAGGCCAUGGAAGCUAGGAGCACCAUUUCGCUGCCAGUGAAGAAAUGAACUAAGAAAAUCUGGGCCAGGCAGGCAUCAAAAGAAAUAGUCUUGCGCUCAACCAGAAAGUCUGUAAUCAUUUUAAGGGUA [A24G A62U]
2. GUCAACGGUCAUAGGCCAUGGAAACUAGGAGCACCAUUUCGCUGCCAGUGAAGAAAUGAACAAAGAAAGUCUGGGCCAGGCAGGCAUCAAAAGAAAUAGUCUUGCGCUCAACCAGAAAGUCUGUAAUCAUUUUAAGGGUA [U3C A69G]
3. GUUAACGGUCAUAGGCCACGGAAACUAGGAGCACCACUUCGCUGCCAGUGAAGAAAUGAACAAAGAAAAUCUGGGCCAGGCAGGCAUCAAAAGAAAUAGUCUUGCGCUCAACCAGAAAGUCUGUAAUCAUUUUAAGGGUA [U19C U37C]
4. GUUAACGGUCAUAGGCCAUGGAAACUAGGAGCACCAUUUCGCUGCCGGUGAAGAAAUGAACAAAGAAAAUCUGGGCCAGGCAGGCAUCAAAAGAAAUAGUCUUGCGCUCAACCAGAAAGUCUGUAAUCAUUCUAAGGGUA [A47G U132C]
5. GUUAACGGUCAUAGGCCAUGGAAACUAGGAGCACCAUUUCGCUGCCAGUGAGGAAAUGAACAAAGAAAAUCUGGGCCAGGCAGGCAUCAAAAGAAAUAGUCUUGCGCUCAACCAGAAAGUCUGUAAUCCUUUUAAGGGUA [A52G A129C]
6. GUUAACGGUCAUAGGCCAUGGAAACUAGGAGCACCAUUUCGCUGCCAGUGAAGAAAUGAACAAAGAAAAUCUGGGCCAGGCAGGCAACAAAAGAAAUAGUCUUGCGCUCAACCAGAAAGUCUGUAAUCAUUUCAAGGGUA [U87A U133C]

[1.12, 1.6, 1.5, 0.47, 0.65, 1.05]

Hey, quick one: what's self-cleavage for each of these?
1. GUUAACGGUCAUAGGCCAUGGAAACUGGGAGCACCAUUUCGCUGCCAGUGAAGAAAUGAACAAAGAAAAUCUGGGCCAGGCAGGCAUCAAAAGAAAUAGUCUUGUGCUCAACCAGAAAGUCUGUAAUCAUUUUAAGGGUA [A27G C105U]
2. GUUAACGGUCAUAGGUCAUGGAAACUAGGAGCACCAUUUCGCUGCCAGUGAAGAAAUGAACAAAGAAAAUCUGGGCCAGGCAGGCAUCAAAAGAAAUAGUCUUGCGCUCAACCAGAAAGUCUGUAAUCAUUCUAAGGGUA [C16U U132C]
3. GUUAACGGUCAUAGGCCAUGGAAACUAGGAGCACCAUUUCGCUGCCAGUGAAGAAAUGAACAAAGAAAAUCUGGGCCUGGCAGGCAUCAAAAGAAAUAGUCUUGCGCUCAGCCAGAAAGUCUGUAAUCAUUUUAAGGGUA [A78U A111G]
4. GUUAACGGUCAUAGGCCAUGGAAACUAGGAGCACCCUUUCGCUGCCAGUGAAGAAAUGAACAAAGAAAAUCUGGGCCAGGCAGGCAUCAAGAGAAAUAGUCUUGCGCUCAACCAGAAAGUCUGUAAUCAUUUUAAGGGUA [A36C A91G]
5. GUUAACGGUCAUAGGCCAUGGCAACUAGGAGCACCAUCUCGCUGCCAGUGAAGAAAUGAACAAAGAAAAUCUGGGCCAGGCAGGCAUCAAAAGAAAUAGUCUUGCGCUCAACCAGAAAGUCUGUAAUCAUUUUAAGGGUA [A22C U38C]
6. GUUAACGGUCAAAGGCCAUGGAAACUAGGAGCACCAUUUCGCUGCCAGUGAAGAAAUGAACAAAGAAAAUCUGGGCCAGGCAGGCAUCAAAAGAAAUAGUCAUGCGCUCAACCAGAAAGUCUGUAAUCAUUUUAAGGGUA [U12A U102A]
7. GUUAACGGUCAUAGGCCAUGGAAACUAGGAGCACCAUUUCGCUGCCAGUGAAGAAAUGAACAAAGAAAAUCUGGGCCAGGCAGGCAUCAAAAGAAAUAGUCUUGCGCUCAACCAGAAAGACUGUAAUCAUUUAAAGGGUA [U120A U133A]

[0.24, 1.11, 0.02, 1.81, 2.55, 1.08, 1.81]

// each listed variant needs a value for self-cleavage
1. GUUAACGGUCAUAGGCCAUGGAAACUAGGAGCACCAUUUCGCUGCCAGUGAAGAAAUGAACAGAGAAAAUCUGGGCCAGGCAGGCAUCAAAAGAAAUAGUCUUGCGCUCAACCAGAAAGUCUGUGAUCAUUUUAAGGGUA [A63G A125G]
2. GUUAACGGUCAUAGGCCAUGGAAACUAGGAGCACCAUUUCGCUGCCAGUGAAGAAAUGAACAAAGAAAAUCUGGGCCAGGCAGGCAUCAAAAGAAAUAGUCGUGCCCUCAACCAGAAAGUCUGUAAUCAUUUUAAGGGUA [U102G G106C]
3. GUUAACGGUCAUAGGCCAUGGAAACUAGGAGCACCAUUUCGCUGCCAGCGAAGAAAUGAACAAAGAAAAUCUGGGCCAGGCAGGCAUCAAAAGAAAUAGUCUUGCGCUCAACCAGAAAGUGUGUAAUCAUUUUAAGGGUA [U49C C121G]
4. GCUAACGGUCAUAGGCCAUGGAAACUAGGAGCACCAUUUCGCUGGCAGUGAAGAAAUGAACAAAGAAAAUCUGGGCCAGGCAGGCAUCAAAAGAAAUAGUCUUGCGCUCAACCAGAAAGUCUGUAAUCAUUUUAAGGGUA [U2C C45G]
5. GUUAACGGUCAUAGGCCAUGGAAACUAGGAGCACCAUUUCGCUGCCAGUGAAGAAAUGAACAAAGAAAAUCUGGACCAGGCAGGCAUCAAAAGAAAUAGUCUUGCGCUCAACCAGAAAGUCUGUAAUCAUUUUAAGGGUA [G75A]
6. GCUAACGGUCAUAGGCCAUGAAAACUAGGAGCACCAUUUCGCUGCCAGUGAAGAAAUGAACAAAGAAAAUCUGGGCCAGGCAGGCAUCAAAAGAAAUAGUCUUGCGCUCAACCAGAAAGUCUGUAAUCAUUUUAAGGGUA [U2C G21A]
7. GUUAAUGGUCAUAGGCCAUGGAAACUAGGAGCACCAUUUCGCUGCCAGUGAAGAAAUGAACAAAGAAAAUCUGGGCCAGGCAGGCAUCAAAAGAAAUAGUCUUGCGCUCAACCAGAAAGUCUGUCAUCAUUUUAAGGGUA [C6U A125C]
8. GUUAACGGUCAAAGGCCAUGGAAACUAGGAGCACCAUUUCGCUGCCAGUGAAGAAAUGAACAAAGAAAAUCUGGGCCAGGCAGGCAUCAAAAGAAAUAGUCUUGCGCUCAGCCAGAAAGUCUGUAAUCAUUUUAAGGGUA [U12A A111G]

1: 0.64; 2: 0.01; 3: 2.4; 4: 1.29; 5: 0.11; 6: 0.98; 7: 1; 8: 0.08

List the reported self-cleavage of each variant below.
1. GUUAACGGUCAUAGGCCAUGGAAACUAGGAGAACCAUUUCGCUGCCAGUGAAGAAAUGAACAAAGAAAAUCUGGGCCAGGCAGGCAUCAGAAGAAAUAGUCUUGCGCUCAACCAGAAAGUCUGUAAUCAUUUUAAGGGUA [C32A A90G]
2. GUUAACGGUCAUAGGCCAUGGAAACUAGGAGCACCAUUUCGCUGCCAGUGAAGAAAUGAACAAAGAAAAUCUGGGCCAGGCAGGCAUCAAAAGAAAUAGUCUUGCGCUCAACCAGCAAGUCUGUAAUCAUUUUAAGGGUA [A116C]
3. UUUAACGGUCAUAGGCCAUGGAAACUAGGAGCACCAUUUCGCUGCCAGUGAAGGAAUGAACAAAGAAAAUCUGGGCCAGGCAGGCAUCAAAAGAAAUAGUCUUGCGCUCAACCAGAAAGUCUGUAAUCAUUUUAAGGGUA [G1U A54G]

1. 1.27
2. 0.13
3. 1.44
